Test: Pimavanserin plasma pharmacokinetics fitted to 1-compartment model
Type: in vivo
Settings: plasma; 14th oral dose of 50 mg; 1-compartment model
observationType: Cmax (µg/mL)

* CC(C)COc1ccc(CNC(=O)N(Cc2ccc(F)cc2)C2CCN(C)CC2)cc1 | 0.0893

----------
Test: Pimavanserin plasma pharmacokinetics fitted to 1-compartment model
Format: in vivo
Details: plasma; 14th oral dose of 50 mg; 1-compartment model
observationType: Tmax

• CC(C)COc1ccc(CNC(=O)N(Cc2ccc(F)cc2)C2CCN(C)CC2)cc1 [Pimavanserin] = 4.77 h

Value source: patent US9050343B2
